Tested on: mouse brain
Assay text: Comparative uptake and incorporation of halogenated amino acids in mouse brain (40 min after i.v. injection)
Assay type: in vivo
Stated conditions: mouse, in vivo, iv
Experimental: Typically, 0.75 to 1.5 MBq of L-2-[^18 F]-fluorotyrosine in 50 to 100 μl of isotonic solution were injected into the tail vein of NMRI mice. After a defined incubation time, the animals were sacrificed and the brains were removed within 20 s and frozen in liquid nitrogen. […] The protein fraction precipitated by TCA was spun down and washed 2× with TCA solution, and the radioactivity in the combined supernatants and in the protein pellet was measured. […]
# Incorporation listing for each entry below
Quantity measured: Incorporation

> print(dat)
                                   compound                observed.result
1  NC(Cc1ccc([18F])cc1)C(=O)O (stereo not drawn) [4 - ^18 FPhe, p-[^18 F]-fluorophenylalanine]  20 ± 2 % of cerebral activity
2  NC(Cc1ccccc1[18F])C(=O)O (stereo not drawn) [2 - ^18 FPhe]  11 ± 2 % of cerebral activity
3  CSCC[C@H](N)C(=O)O [^14 C-Met, methionine]  57 ± 3 % of cerebral activity
4  C[C@](N)(Cc1ccc(O)c([123I])c1)C(=O)O [3 - ^123 I-α-MeTyr, 3-iodo-α-methyltyrosine]  18 ± 1 % of cerebral activity
5  NC(Cc1ccc(O)c([123I])c1)C(=O)O (stereo not drawn) [3 - ^123 ITyr]  13 ± 4 % of cerebral activity
6  NC(Cc1ccccc1[75Br])C(=O)O (stereo not drawn) [2 - ^75 BrPhe]  15 ± 1 % of cerebral activity
